Experiment: Half life in Wistar rat at 10 mg/kg, iv administered as single bolus dose
Format: ADME, organism-based
Parameters: dose 10 mg/kg, route intravenous
Settings: in vivo
QUANTITY KIND: half-life (h)
Please respond with the number in h and leave the unit unwritten.

input: // lookup half-life for O=C(NN1C(=O)CCSC1c1ccc(OCc2ccccc2)cc1)c1ccncc1 (stereo unspecified)
output: 1.14

###

Measured Cmax, listed per entry.
Assay: Cmax in Wistar rat at 10 mg/kg, iv administered as single bolus dose
Assay type: ADME, organism-based
Parameters: dose 10 mg/kg, route intravenous
Conditions: in vivo
Please respond with the number in µg/mL and leave the unit unwritten.

INSERT INTO assay_data (compound, meas_value) VALUES
  ('NNC(=O)c1ccncc1', 298);

Alright, here's another compound for you.
input: // lookup Cmax for O=C(NN1C(=O)CCSC1c1ccc(OCc2ccccc2)cc1)c1ccncc1 (configuration not stated)
output: 5.29
